assay: qHTS assay to identify small molecule agonists of the AP-1 signaling pathway (AID 1159526); settings: ME-180 (cervical carcinoma) AP-1-bla reporter, beta-lactamase FRET ratio, 5 h; series mostly up to 76.8 µM
Inconclusive results are not listed. Calls of active or inactive are those of the source. Calls come from the whole dose curve.
Outcome (select one): yes (1) = active, no (0) = inactive

// below: answered compounds
>  <COMPOUND>
CC1=CCC(C(C)C)C=C1 (configuration not stated)

>  <LABEL VALUE>
no (0)

$$$$
>  <COMPOUND>
CC(=O)O[C@@H]1C(=O)O[C@@H]2[C@H]1OC(=O)[C@@H]2OC(C)=O

>  <LABEL VALUE>
no (0)

$$$$
>  <COMPOUND>
CCN(CC)CCOc1ccc2c(c1)C(=O)c1cc(OCCN(CC)CC)ccc1-2

>  <LABEL VALUE>
no (0)

$$$$
>  <COMPOUND>
O=c1c2ccccc2nnn1CCl

>  <LABEL VALUE>
no (0)

$$$$
>  <COMPOUND>
CCCC(=O)OCC

>  <LABEL VALUE>
no (0)

$$$$
>  <COMPOUND>
O=C(O)c1cccc(N(Cc2cccnc2)c2ccc(OC(F)F)c(OC(F)F)c2)c1

>  <LABEL VALUE>
no (0)

$$$$
>  <COMPOUND>
CC(=O)Nc1ccc(/C=N/NC(N)=S)cc1

>  <LABEL VALUE>
no (0)

$$$$
>  <COMPOUND>
O=C(Nc1ccccc1)OCC(CN1CCCCC1)OC(=O)Nc1ccccc1 (configuration not stated)

>  <LABEL VALUE>
no (0)

$$$$

Query: Identify the outcome logged in this assay for the compound shown: CCCCCCCCN(C)C
Result: no (0)
